Documented log10(IC50) across a set of compounds
- tested.system: Nitric oxide synthase 3 (Homo sapiens, UniProt P29474)
- Sequence (P29474 whole entry): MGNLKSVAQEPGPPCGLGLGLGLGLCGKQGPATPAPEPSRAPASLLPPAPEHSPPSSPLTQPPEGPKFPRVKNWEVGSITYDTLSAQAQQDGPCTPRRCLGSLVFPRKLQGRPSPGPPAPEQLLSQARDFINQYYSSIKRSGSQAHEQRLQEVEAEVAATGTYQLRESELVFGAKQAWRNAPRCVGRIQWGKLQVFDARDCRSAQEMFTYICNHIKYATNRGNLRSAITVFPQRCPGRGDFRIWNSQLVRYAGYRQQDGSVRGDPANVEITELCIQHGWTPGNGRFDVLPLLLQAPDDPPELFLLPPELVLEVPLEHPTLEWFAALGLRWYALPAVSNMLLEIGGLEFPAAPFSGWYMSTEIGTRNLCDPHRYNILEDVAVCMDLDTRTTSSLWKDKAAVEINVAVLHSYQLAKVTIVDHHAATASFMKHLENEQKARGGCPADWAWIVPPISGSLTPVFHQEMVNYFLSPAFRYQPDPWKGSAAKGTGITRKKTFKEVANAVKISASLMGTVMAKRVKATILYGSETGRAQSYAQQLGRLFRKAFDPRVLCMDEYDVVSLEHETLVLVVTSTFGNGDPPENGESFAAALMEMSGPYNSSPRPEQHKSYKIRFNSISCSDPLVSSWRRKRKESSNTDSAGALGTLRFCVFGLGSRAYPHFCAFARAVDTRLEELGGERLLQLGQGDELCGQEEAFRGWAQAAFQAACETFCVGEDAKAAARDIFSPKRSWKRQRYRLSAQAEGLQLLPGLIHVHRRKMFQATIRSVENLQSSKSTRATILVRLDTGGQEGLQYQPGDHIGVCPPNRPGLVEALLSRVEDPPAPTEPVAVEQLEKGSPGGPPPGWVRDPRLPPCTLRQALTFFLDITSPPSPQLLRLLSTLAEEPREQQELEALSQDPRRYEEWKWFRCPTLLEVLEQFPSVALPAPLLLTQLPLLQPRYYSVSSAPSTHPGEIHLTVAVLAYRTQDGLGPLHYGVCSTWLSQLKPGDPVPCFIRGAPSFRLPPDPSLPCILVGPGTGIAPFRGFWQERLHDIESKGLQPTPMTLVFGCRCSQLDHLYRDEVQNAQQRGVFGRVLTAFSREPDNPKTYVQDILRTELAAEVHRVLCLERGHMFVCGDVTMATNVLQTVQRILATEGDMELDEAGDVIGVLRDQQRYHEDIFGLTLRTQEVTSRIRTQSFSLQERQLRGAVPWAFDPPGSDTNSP
recorded.endpoint: log10(IC50) (log10 of the value in µM)

{"compound": "CCC1N=C(N)CC1C (stereo not given)", "recorded.endpoint": "log10(IC50)", "value.reported": -0.28}
{"compound": "CCC1CN=C(N)C1C (stereo not given)", "recorded.endpoint": "log10(IC50)", "value.reported": 1.78}
{"compound": "CC1CC(N)=NC1C (stereo not given)", "recorded.endpoint": "log10(IC50)", "value.reported": -0.22}
{"compound": "CCCC1CC(N)=NC1C (stereo not given)", "recorded.endpoint": "log10(IC50)", "value.reported": 2.02}
{"compound": "NC1=NCCC1", "recorded.endpoint": "log10(IC50)", "value.reported": 0.66}
{"compound": "NC1=NCCS1", "recorded.endpoint": "log10(IC50)", "value.reported": 0.04}
{"compound": "CC1CCC(N)=N1 (stereo not given)", "recorded.endpoint": "log10(IC50)", "value.reported": 0.28}
{"compound": "N=C1CCC2CCCN12 (stereo not given)", "recorded.endpoint": "log10(IC50)", "value.reported": 1.52}
{"compound": "CCCC1CN=C(N)C1 (stereo not given)", "recorded.endpoint": "log10(IC50)", "value.reported": 1.72}

---

- tested.system: Nitric oxide synthase 3 (Homo sapiens) (UniProt P29474)
- Sequence (whole entry): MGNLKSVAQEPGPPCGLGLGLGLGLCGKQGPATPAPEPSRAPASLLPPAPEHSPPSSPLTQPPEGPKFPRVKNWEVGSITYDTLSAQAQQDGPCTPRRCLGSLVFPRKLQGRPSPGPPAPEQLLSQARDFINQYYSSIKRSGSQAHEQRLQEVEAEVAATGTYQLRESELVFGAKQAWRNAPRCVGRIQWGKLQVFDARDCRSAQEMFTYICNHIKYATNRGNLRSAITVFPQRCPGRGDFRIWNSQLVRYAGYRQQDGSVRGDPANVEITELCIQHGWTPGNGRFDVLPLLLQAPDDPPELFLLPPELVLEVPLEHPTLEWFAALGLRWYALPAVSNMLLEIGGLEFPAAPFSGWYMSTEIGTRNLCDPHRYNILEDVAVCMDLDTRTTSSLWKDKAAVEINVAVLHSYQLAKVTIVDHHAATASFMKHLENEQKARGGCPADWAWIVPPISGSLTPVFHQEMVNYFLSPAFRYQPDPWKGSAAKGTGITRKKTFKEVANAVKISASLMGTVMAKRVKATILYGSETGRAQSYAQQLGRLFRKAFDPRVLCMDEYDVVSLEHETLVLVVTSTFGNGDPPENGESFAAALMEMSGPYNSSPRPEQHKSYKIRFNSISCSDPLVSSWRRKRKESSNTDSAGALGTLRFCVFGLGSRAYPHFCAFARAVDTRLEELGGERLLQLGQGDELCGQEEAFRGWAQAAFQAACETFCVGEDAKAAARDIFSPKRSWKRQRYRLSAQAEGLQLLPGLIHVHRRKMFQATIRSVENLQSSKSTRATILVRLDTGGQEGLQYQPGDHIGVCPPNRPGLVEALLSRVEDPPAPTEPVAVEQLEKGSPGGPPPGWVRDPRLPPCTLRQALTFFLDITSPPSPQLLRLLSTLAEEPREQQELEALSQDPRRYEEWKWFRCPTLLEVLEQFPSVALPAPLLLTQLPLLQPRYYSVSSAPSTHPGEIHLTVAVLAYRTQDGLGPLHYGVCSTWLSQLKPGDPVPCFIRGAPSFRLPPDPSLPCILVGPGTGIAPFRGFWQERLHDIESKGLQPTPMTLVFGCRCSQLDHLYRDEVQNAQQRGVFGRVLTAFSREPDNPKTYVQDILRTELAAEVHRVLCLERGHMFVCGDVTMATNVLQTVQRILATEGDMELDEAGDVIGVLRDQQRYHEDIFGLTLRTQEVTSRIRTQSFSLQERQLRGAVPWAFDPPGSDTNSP
- assay.details: Ratio between Endothelial nitric oxide synthase and Inducible nitric oxide synthase
Tag: criterion met if measured Ratio is not below 20, criterion not met if it is.

{"compound": "CCCC1CC(N)=NC1CC (configuration not stated)", "category.label": "criterion met"}
{"compound": "CCC1CC(C)C(N)=N1 (configuration not stated)", "category.label": "criterion not met"}
{"compound": "CC1CCC(N)=N1 (configuration not stated)", "category.label": "criterion not met"}
{"compound": "CCCC1CN=C(N)C1 (configuration not stated)", "category.label": "criterion not met"}
{"compound": "CCCC1CC(N)=NC1C (configuration not stated)", "category.label": "criterion not met"}
{"compound": "CC(=N)NCCCC[C@H](N)C(=O)O", "category.label": "criterion not met"}
{"compound": "NC1=NCCC1", "category.label": "criterion not met"}
{"compound": "CC1CCN=C1N (configuration not stated)", "category.label": "criterion not met"}
{"compound": "NC1=NCCS1", "category.label": "criterion not met"}
{"compound": "CC1CN=C(N)C1 (configuration not stated)", "category.label": "criterion not met"}
{"compound": "CCC1N=C(N)CC1C (configuration not stated)", "category.label": "criterion met"}
{"compound": "CCC1CN=C(N)C1 (configuration not stated)", "category.label": "criterion met"}
{"compound": "CC1CN=C(N)C1C (configuration not stated)", "category.label": "criterion not met"}
{"compound": "CCC1CN=C(N)C1C (configuration not stated)", "category.label": "criterion met"}
{"compound": "CCC1CC(N)=NC1C (configuration not stated)", "category.label": "criterion met"}
{"compound": "CC(C)C1CN=C(N)C1 (configuration not stated)", "category.label": "criterion met"}
{"compound": "CCCC1N=C(N)CC1C (configuration not stated)", "category.label": "criterion met"}

---

- tested.system: UniProt P29475
- Sequence (P29475 whole entry): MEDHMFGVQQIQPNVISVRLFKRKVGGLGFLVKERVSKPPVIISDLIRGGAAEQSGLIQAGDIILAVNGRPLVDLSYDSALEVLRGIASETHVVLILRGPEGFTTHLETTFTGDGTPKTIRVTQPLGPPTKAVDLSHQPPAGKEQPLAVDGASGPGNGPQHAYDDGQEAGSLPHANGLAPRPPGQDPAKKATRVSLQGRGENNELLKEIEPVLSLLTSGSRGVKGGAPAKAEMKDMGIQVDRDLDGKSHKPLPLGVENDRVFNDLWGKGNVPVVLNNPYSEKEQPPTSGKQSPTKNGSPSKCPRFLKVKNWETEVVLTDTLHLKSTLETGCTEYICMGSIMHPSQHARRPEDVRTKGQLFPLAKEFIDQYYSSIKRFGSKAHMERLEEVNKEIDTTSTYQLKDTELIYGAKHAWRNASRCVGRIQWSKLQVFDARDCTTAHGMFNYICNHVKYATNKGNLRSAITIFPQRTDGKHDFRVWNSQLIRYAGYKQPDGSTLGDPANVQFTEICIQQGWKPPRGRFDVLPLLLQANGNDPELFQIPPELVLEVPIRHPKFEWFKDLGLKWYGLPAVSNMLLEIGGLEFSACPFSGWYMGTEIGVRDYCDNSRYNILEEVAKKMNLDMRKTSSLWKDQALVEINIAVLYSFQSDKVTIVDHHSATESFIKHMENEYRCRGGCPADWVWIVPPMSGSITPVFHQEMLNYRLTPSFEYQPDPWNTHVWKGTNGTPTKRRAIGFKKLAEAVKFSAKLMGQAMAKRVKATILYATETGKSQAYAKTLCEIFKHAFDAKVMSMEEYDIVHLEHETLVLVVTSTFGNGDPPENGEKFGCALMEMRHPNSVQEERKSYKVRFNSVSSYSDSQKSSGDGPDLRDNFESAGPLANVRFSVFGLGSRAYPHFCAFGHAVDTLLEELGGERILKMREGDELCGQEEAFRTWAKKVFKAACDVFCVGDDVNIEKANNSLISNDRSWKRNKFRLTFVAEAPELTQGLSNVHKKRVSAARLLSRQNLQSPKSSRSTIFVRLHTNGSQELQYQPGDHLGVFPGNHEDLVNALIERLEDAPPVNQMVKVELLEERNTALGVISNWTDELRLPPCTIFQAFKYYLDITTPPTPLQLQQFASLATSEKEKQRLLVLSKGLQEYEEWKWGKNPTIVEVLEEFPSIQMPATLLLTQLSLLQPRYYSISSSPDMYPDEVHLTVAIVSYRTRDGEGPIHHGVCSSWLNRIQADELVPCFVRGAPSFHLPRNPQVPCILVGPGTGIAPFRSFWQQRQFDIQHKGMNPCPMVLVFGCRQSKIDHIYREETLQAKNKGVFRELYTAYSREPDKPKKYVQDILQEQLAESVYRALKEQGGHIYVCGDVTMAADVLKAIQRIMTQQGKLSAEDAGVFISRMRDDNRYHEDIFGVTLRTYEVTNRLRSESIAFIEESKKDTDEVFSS
- assay.details: Inhibitory activity against Neuronal nitric oxide synthase
pIC50: −log10 of the molar value.
Rule: YES for pIC50 not less than 6, NO for anything less.

{"molecule": "CCC1CN=C(N)C1C (configuration not stated)", "category.label": "YES"}
{"molecule": "CC1CCC(N)=N1 (configuration not stated)", "category.label": "NO"}
{"molecule": "N=C1SCC2CCCCN12 (configuration not stated)", "category.label": "NO"}
{"molecule": "NC1=NC(c2ccccc2)CS1 (configuration not stated)", "category.label": "NO"}
{"molecule": "NC1=NCCS1", "category.label": "NO"}
{"molecule": "CCC1CC(C)C(N)=N1 (configuration not stated)", "category.label": "NO"}
